From: paper PMC4764975

The entries below come with measured pKd values attached.
- target of assay: BAP-tagged AMPK α1β1γ1 (Homo sapiens, UniProt P54619+Q13131+Q9Y478)
- Construct: Recombinant full-length AMPK heterotrimeric complexes α1β1γ1, α1β2γ1, α1β2γ3, α2β1γ1, α2β2γ1 and α2β2γ3 were cloned; 6X-His (N); AviTag (BAP); made in house; host or cells: E. coli (co-expressed with BirA)
- Sequence (Q13131 whole entry): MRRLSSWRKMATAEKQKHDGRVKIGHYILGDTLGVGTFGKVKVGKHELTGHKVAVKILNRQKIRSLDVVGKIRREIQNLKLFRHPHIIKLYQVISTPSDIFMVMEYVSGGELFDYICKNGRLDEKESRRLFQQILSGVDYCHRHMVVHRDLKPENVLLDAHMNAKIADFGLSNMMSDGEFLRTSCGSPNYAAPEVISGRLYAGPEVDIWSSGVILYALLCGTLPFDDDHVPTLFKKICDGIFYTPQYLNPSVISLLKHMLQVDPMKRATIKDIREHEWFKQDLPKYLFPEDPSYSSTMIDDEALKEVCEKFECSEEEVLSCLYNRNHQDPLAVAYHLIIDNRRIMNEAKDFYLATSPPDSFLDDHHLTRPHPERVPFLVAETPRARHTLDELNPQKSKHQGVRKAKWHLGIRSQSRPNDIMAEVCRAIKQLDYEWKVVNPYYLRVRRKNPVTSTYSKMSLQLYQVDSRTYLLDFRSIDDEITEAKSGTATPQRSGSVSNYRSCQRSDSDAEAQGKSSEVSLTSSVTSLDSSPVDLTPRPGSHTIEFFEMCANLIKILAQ
- Sequence (Q9Y478 whole entry): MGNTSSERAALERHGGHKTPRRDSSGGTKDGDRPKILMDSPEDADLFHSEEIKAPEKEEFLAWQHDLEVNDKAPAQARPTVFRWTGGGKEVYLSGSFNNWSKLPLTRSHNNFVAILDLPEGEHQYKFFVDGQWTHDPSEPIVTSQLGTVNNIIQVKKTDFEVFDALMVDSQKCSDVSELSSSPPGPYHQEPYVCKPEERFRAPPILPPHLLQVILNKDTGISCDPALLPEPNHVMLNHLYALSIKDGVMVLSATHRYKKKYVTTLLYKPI
- Sequence (P54619 whole entry): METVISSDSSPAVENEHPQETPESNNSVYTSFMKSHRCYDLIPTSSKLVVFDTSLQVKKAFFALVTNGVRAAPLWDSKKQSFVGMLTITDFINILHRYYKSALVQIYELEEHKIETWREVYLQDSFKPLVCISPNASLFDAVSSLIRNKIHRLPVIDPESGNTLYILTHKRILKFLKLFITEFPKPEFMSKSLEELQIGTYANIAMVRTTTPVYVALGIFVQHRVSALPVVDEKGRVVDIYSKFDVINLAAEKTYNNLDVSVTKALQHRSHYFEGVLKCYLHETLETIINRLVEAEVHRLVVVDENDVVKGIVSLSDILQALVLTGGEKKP
- assay notes: SPR direct binding (Biacore)
- protocol conditions: presence of Mg2+, cell spans KD1 and KD2, read-out: KD (single measurable binding affinity)
Answer as the number alone; pKd is minus log10 of concentration in mol/L.

compound	pKd
Nc1ncnc2c1ncn2[C@@H]1O[C@H](COP(=O)(O)OP(=O)(O)O)[C@@H](O)[C@H]1O [ADP]	4.48

Continue with the next compound.
Ask | Record request: pKd value, item Nc1ncnc2c1ncn2[C@@H]1O[C@H](COP(=O)(O)OP(=O)(O)OP(=O)(O)O)[C@@H](O)[C@H]1O [ATP]
Reply | 3.89

====

- target of assay: BAP-tagged AMPK α2β2γ1 (Homo sapiens, UniProt O43741+P54619+P54646)
- Construct: Recombinant full-length AMPK heterotrimeric complexes α1β1γ1, α1β2γ1, α1β2γ3, α2β1γ1, α2β2γ1 and α2β2γ3 were cloned into a tricistronic vector system; 6X-His (N); made in house; host or cells: E. coli BL21-CodonPlus (DE3)-RIPL, co-expressed with BirA
- Sequence (P54619 whole entry, one chain of several): as the sequence (P54619 whole entry) above
- assay notes: SPR direct binding (Biacore)
- protocol conditions: tighter site, presence of Mg2+, read-out: KD1
assay metric: pKd
The read-out pKd is expressed as -log10 of concentration in moles per litre.

Ask | If you can, please state the reported pKd value of Nc1ncnc2c1ncn2[C@@H]1O[C@H](COP(=O)(O)O)[C@@H](O)[C@H]1O .
Reply | 5.82

====

- target of assay: BAP-tagged AMPK α2β2γ3 (Homo sapiens, UniProt O43741+P54646+Q9UGI9)
- Construct: Recombinant full-length AMPK heterotrimeric complexes α1β1γ1, α1β2γ1, α1β2γ3, α2β1γ1, α2β2γ1 and α2β2γ3 were cloned into a tricistronic vector system; 6X-His (N); made in house; host or cells: E. coli BL21-CodonPlus (DE3)-RIPL, co-expressed with BirA
- Sequence (P54646 whole entry): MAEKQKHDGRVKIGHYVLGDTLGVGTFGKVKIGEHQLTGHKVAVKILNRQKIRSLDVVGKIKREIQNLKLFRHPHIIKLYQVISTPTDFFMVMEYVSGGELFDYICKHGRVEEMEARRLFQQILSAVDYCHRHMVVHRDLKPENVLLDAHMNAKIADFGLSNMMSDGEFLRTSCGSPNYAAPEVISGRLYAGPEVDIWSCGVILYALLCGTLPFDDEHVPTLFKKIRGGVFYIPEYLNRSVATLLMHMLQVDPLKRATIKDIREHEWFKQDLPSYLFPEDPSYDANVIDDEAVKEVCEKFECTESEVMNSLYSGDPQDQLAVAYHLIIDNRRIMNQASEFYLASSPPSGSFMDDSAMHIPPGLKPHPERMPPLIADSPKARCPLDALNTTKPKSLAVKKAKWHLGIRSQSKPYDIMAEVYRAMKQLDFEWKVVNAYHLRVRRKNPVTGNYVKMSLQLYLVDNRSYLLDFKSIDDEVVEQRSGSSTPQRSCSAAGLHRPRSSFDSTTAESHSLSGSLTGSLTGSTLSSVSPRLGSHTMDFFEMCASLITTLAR
- Sequence (O43741 whole entry): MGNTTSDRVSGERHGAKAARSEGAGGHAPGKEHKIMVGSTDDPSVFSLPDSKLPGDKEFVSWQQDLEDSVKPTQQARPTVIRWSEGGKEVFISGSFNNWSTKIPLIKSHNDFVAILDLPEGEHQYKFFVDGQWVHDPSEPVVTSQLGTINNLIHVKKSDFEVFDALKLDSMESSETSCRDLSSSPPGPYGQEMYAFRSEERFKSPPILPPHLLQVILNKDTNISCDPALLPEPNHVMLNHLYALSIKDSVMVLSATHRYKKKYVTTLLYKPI
- Sequence (Q9UGI9 whole entry): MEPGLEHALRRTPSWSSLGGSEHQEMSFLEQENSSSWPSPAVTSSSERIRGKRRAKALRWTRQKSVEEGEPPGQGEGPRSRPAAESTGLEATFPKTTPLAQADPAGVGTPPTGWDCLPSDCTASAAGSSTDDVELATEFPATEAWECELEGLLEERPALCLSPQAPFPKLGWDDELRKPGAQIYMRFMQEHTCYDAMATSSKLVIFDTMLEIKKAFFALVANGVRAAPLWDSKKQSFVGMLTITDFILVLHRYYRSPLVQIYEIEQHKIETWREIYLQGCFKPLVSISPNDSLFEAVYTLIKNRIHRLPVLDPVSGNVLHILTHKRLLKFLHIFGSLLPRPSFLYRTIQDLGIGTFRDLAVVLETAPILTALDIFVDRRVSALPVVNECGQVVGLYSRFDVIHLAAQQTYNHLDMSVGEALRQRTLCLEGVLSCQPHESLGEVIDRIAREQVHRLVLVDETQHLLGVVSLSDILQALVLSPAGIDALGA
- assay notes: SPR direct binding (Biacore)
- protocol conditions: weaker site, absence of Mg2+ and Stau, read-out: KD2
Overview of reported Kd across a group of compounds:
Provide only the numeric value, understood in µM.

Nc1ncnc2c1ncn2[C@@H]1O[C@H](COP(=O)(O)OP(=O)(O)O)[C@@H](O)[C@H]1O 1500
Nc1ncnc2c1ncn2[C@@H]1O[C@H](COP(=O)(O)OP(=O)(O)OP(=O)(O)O)[C@@H](O)[C@H]1O 3500

We now examine a further compound.
Ask | Endpoint output: Kd of Nc1ncnc2c1ncn2[C@@H]1O[C@H](COP(=O)(O)O)[C@@H](O)[C@H]1O . Value?
Reply | 42
